# System: HCC1569;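 also: TDF denotes transformed human dermal fibroblasts of mesenchymal origin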
# protocol text: cell number relative to DMSO (% of DMSO); higher = more cells (less growth inhibition / toxicity)
# applied conditions: concentration: 10 µM; 24 h
Assign class by cell number: not lower than 100 means TRUE; lower than 100 means FALSE.

As a guide, the following entries are already answered.
# compound, test target, cat
measured = [
    ("COc1cc(CC(=O)O)ccc1O [4-Hydroxy-3-methoxyphenylacetic acid]", "HCC1569", "TRUE"),
    ("CN1CCN(CCCN2c3ccccc3Sc3ccc(C(F)(F)F)cc32)CC1.Cl.Cl [Trifluoperazine dihydrochloride]", "HCC1569", "FALSE"),
    ("CCCCCCCCCCCCCC=CC(O)C(CO)N(C)C (stereo not drawn)", "HCC1569", "TRUE"),
]

Proceed to the following item.
Does cell number meet or surpass 100 for O=C(CCCN1CC=C(n2c(=O)[nH]c3ccccc32)CC1)c1ccc(F)cc1 ?
TRUE
